- assay_remarks: Cytotoxic activity, Neutral Red assay, Vero
- Type: cell-based
- condition_label: African green monkey, Vero kidney fibroblast cells (non-cancerous), NA = not active at 10 µg/mL for pure compound, at 100 µg/mL for extracts
experimental_endpoint: IC50 at 48 h

Asked: Record request: IC50 at 48 h value, item COc1cccc2c1C(=O)c1c(O)c3c(c(O)c1C2=O)C[C@@](O)(C(=O)CO)C[C@@H]3O[C@H]1C[C@H](N)[C@H](O)[C@H](C)O1 [Doxorubicin]
Given back: > 5 µg/mL

---

- assay_remarks: Cytotoxic activity, Neutral Red assay, LLC-PK1
- Format: cell-based
- condition_label: pig, LLC-PK1 kidney epithelial cells (non-cancerous), NA = not active at 10 µg/mL for pure compound, at 100 µg/mL for extracts
experimental_endpoint: IC50 at 48 h (µg/mL)
Quick reminder: number only, in µg/mL, skip the unit.

Asked: Record request: IC50 at 48 h value, item COc1cccc2c1C(=O)c1c(O)c3c(c(O)c1C2=O)C[C@@](O)(C(=O)CO)C[C@@H]3O[C@H]1C[C@H](N)[C@H](O)[C@H](C)O1 [Doxorubicin]
Given back: 1.2
